Experiment: soluble on expression in E. coli; label from the status in PepcDB or PDB records
assayMetric: soluble on expression in E. coli

[
  {
    "sequenceCode": "MSLKNITIGMVGVGRIGRMHVANMLAVAETLKERDLNIEIVLADAMPGFAEQVGADMGVKAAASVDKLIEDGVDALFIATSTAGHVDVLRKGIAAKLPMFCEKPIASDVPESLNIIREIDAAGATVQVGHQRRFDLGYQEAKRRLDAGDLGWLHSLKAVSSDAFPPPVSYCATSGGLFRDVSLHDFDIIRWLTGQDIVEVYAKGSNNGDPEIGAVGDIDTGAALLTLADGTLATAIATRYNGAGHDVRLDVMGSKDSTIVGLDEKSAFASAEEGIDFPTGESHPTFAERFADAYKNECIAFVELILGERENPCTPADAVAAAIVADAAQLSLVTGEPVKIPTVREILEGSAQPVEVRALVPSEGHHHHHH",
    "assayMetric": "soluble on expression in E. coli",
    "testValue": "soluble"
  },
  {
    "sequenceCode": "MSLKNNRHFLKFYCIRDLSWLSSVRASFIYSSFESIASSPFSSYIELRKKPVKFLLILFIALTLCDCGRSKETQFYLLTPISPQKNSRNSYNHLQIGVDEVSIPDYMKKPQLMIHQTPHHLTLEEFNQWAGALDKNITLVLTTNLSTLMPGVVVQTSPWNNKFHPDYHLQVMISQFEIDIHGNSTLRAEYFIYRKEELIYKGNAYYHIKVPLISIETLVQSMNTNLTHLTEEIARFFIKNTTKEGHHHHHH",
    "assayMetric": "soluble on expression in E. coli",
    "testValue": "not soluble"
  },
  {
    "sequenceCode": "MGFAFKRGISTPDLALITRQLATLVQSGMPLEECLRAVAEQSEKPRIRTMLVAVRAKVTEGYTLSDSLGDYPHVFDELFRSMVAAGEKSGHLDSVLERLADYAENRQKMRSKLQQASENLYFQ",
    "assayMetric": "soluble on expression in E. coli",
    "testValue": "soluble"
  },
  {
    "sequenceCode": "MELKQFKIAVLPLRDKLLSYARKLTDDHSDAEDAVQEVMLKLWNLRPKLDEYHSIEALAMTMTHHTCMDILRGKHPDNLSLDSVQAASPVATPERLLEEKDEFSLMRHIISTLPPLQQTILRMKDVEEYETEEIAEITGCSSEAIRSNLSRARKKVRDIYLQTIQQRKRRNEA",
    "assayMetric": "soluble on expression in E. coli",
    "testValue": "not soluble"
  },
  {
    "sequenceCode": "MFSAVHPDSRRDCKKYRYSQTSHQNYWFLKYSEFNLLGKRKIKGNFLHLFHAEEKVLFQSVMLKDQTAKTEKRTQEITCQLSKLANFEENNRKKLQDTERENKKLRNLINSLELKLVSSPENLPLQILFFLISENDELLERVFHFHCATFTKLSDFQLLFFPTPMYVANEYAKSGRNLWNEAIIADAIPEVSGPEAARMKQITDSIKYKESGFLIDRRVNASALIIQSNCSIFNSNF",
    "assayMetric": "soluble on expression in E. coli",
    "testValue": "not soluble"
  },
  {
    "sequenceCode": "MCFIMSKRNTQLRRHTIVKLVNEQGEVSVEALSSQFETSEVTIRKDLASLEKNGQLLRRYGGAIALPKEVMHDELNEKVSVRKISLAKAAAKLIRDHNRIVIDSGSTTAALIQQLNDKRGLVVMTNSLHVANALNELENEPTLLMTGGTWDTHSESFQGKVAESVLRSYDFDQLFIGADGIDLDRGTTTFNELVGLSKVMAEVSREVIVMIESDKVGRKIPNLELSWDNIDVLVTDHELSDEFAKQIESHQVRVIRATVK",
    "assayMetric": "soluble on expression in E. coli",
    "testValue": "not soluble"
  }
]
